Activity: recorded values
- Tested on: Plasmodium berghei
- assay-overview: Antimalarial activity against Plasmodium berghei infected in NMRI mice (Mus musculus) assessed as cure rat at 3 mg/kg, perorally administered for 3 days post infection measured after 30 days
- Type: functional
- run-conditions: route oral
I only need the number, in %, no unit after it.

OC(c1cc(C(F)(F)F)nc2c(C(F)(F)F)cccc12)C1CCCCN1 (stereo not drawn) [MEFLOQUINE] :: 0
CS(=O)(=O)O.NCC(=O)NC[C@H]1CC[C@]2(CC1)OO[C@]1(O2)C2CC3CC(C2)CC1C3 :: 0

Here's the next entry for you.
(Q) Requested read-out: Activity. Entry: Cc1ccc(S(=O)(=O)O)cc1.N[C@H]1CC[C@H](NC(=O)C(=O)NC[C@H]2CC[C@]3(CC2)OO[C@]2(O3)C3CC4CC(C3)CC2C4)CC1
(A) 40
